System name: human neuropeptide Y5 receptor (Homo sapiens, UniProt Q15761)
Construct: expressed in transfected cells; host or cells: HEK-293, stably transfected, G-418 selected; membranes
Sequence (Q15761 1-445): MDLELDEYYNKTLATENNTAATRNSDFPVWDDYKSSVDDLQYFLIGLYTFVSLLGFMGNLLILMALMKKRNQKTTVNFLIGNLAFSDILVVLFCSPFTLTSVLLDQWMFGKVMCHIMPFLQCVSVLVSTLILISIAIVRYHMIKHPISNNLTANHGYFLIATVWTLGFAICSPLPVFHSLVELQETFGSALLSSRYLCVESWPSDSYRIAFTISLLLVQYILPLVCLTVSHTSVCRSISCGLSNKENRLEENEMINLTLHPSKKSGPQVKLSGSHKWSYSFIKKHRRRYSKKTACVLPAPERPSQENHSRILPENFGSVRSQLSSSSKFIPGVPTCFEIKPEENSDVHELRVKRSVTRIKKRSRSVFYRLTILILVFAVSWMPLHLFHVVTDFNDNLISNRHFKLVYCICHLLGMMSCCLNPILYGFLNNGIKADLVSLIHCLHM
Test details: NPY5 HTS centrifugation assay: competition with 125I-PYY for binding to membranes of NPY5-transfected HEK-293 cells
Protocol conditions: inhibition of 125I-PYY binding; values in nM; read-out: IC50 hNPY5
Measure name: IC50 (nM)

Solved entries:
| Smiles representation | System name | Obs value |
| --- | --- | --- |
| COc1ccc(S(=O)(=O)Nc2ccc(-c3cc(N)n(-c4nccc(C(F)(F)F)n4)n3)cc2)cc1 | human neuropeptide Y5 receptor (Homo sapiens, UniProt Q15761) | 709 |
| COc1ccc(S(=O)(=O)Nc2ccc(-c3cc(N)n(-c4cccc(C)c4)n3)cc2)cc1 | human neuropeptide Y5 receptor (Homo sapiens, UniProt Q15761) | 37 |

P = CNc1ccc(S(=O)(=O)Nc2ccc(-c3cc(NC)n(-c4ccc(C)cc4)n3)cc2)cc1
Q = Cc1ccc(-n2nc(-c3ccc(NS(=O)(=O)c4ccc(N(C)C)cc4)cc3)cc2N)cc1
R = COc1ccc(S(=O)(=O)Nc2ccc(-c3cc(N)n(-c4ccccc4)n3)cc2)cc1
stdin: Sort by IC50, descending. Please list each label once, in the requested order.
stdout: Q, R, P
(Q: 162 nM, R: 100 nM, P: 40 nM)

I = Cc1ccc(-n2nc(-c3ccc(NS(=O)(=O)c4ccc([N+](=O)[O-])cc4)cc3)cc2N)cc1
II = Nc1cc(-c2ccc(NS(=O)(=O)c3ccc(F)cc3)cc2)nn1-c1ccccn1
III = CN(C)c1cccc(-n2nc(-c3ccc(NS(=O)(=O)c4ccccc4)cc3)cc2N)c1
stdin: Which order do these items take when sorted by rising IC50? List them. Please list each label once, in the requested order.
stdout: III, I, II
(III: 22 nM, I: 79 nM, II: 217 nM)

* * *

System name: human neuropeptide Y5 receptor (Homo sapiens, UniProt Q15761)
Construct: expressed in transfected cells; host or cells: HEK-293, stably transfected, G-418 selected; membranes
Sequence (Q15761 1-445): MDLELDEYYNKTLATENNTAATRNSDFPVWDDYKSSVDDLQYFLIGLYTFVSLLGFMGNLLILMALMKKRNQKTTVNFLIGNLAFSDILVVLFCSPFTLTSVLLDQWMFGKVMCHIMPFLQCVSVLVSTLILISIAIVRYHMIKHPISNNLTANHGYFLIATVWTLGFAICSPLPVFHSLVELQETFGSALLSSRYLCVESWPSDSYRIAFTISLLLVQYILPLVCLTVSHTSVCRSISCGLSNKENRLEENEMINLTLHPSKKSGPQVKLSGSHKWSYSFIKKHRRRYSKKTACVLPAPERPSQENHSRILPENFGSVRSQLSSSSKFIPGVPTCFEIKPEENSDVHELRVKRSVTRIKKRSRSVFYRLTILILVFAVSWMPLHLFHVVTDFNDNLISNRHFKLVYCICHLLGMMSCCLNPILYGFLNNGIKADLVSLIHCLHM
Test details: NPY5 HTS centrifugation assay: competition with 125I-PYY for binding to membranes of NPY5-transfected HEK-293 cells
Protocol conditions: 3 μM test compound; inhibition of 125I-PYY binding; read-out: % Inh NPY5 @ 3 μM
Measure name: inhibition at 3 µM (%)

| Smiles representation | Unit spec | inhibition at 3 µM |
| --- | --- | --- |
| Cc1ccc(-n2nc(-c3ccc(NS(=O)(=O)c4ccc(OC(F)(F)F)cc4)cc3)cc2N)cc1 | % | 94 |
| O=C(Nc1ccccc1)c1ccc(-c2cc(NS(=O)(=O)c3ccccc3)n(-c3ccccc3)n2)cc1 | % | 0 |
| COc1ccc(S(=O)(=O)Nc2ccc(-c3cc(N)n(-c4ccc(C)cc4)n3)cc2)cc1 | % | 100 |
| Cc1ccc(-n2nc(-c3ccc(NS(=O)(=O)c4ccc(C(F)(F)F)cc4)cc3)cc2N)cc1 | % | 82 |
| Cc1ccc(-n2nc(-c3ccc(NS(=O)(=O)c4ccccc4)cc3)cc2N)cc1 | % | 97 |
| Cc1ccc(-n2nc(-c3ccc(NS(=O)(=O)c4cccc(C(F)(F)F)c4)cc3)cc2N)cc1 | % | 95 |
| COc1ccc(S(=O)(=O)Nc2ccc(-c3cc(N)n(-c4ccc(C)cc4)n3)cc2)cc1OC | % | 76 |
| Cc1ccc(-n2nc(-c3ccc(NS(=O)(=O)c4ccc(F)cc4)cc3)cc2N)cc1 | % | 98 |

I = Cc1ccc(-n2nc(-c3ccc(NS(=O)(=O)c4ccc5ccccc5c4)cc3)cc2N)cc1
II = COc1ccc(C(=O)Nc2ccc(-c3cc(N)n(-c4ccc(C)cc4)n3)cc2)cc1
stdin: # returns the entry with the larger inhibition at 3 µM; inputs I and II Which one? Tell me its label.
stdout: I

* * *

System name: human neuropeptide Y5 receptor (Homo sapiens, UniProt Q15761)
Construct: expressed in transfected cells; host or cells: HEK-293, stably transfected, G-418 selected; membranes
Test details: NPY5 HTS centrifugation assay: competition with 125I-PYY for binding to membranes of NPY5-transfected HEK-293 cells
Protocol conditions: 3 μM test compound; inhibition of 125I-PYY binding
Measure name: % Inh NPY5 @ 3 μM (%)

Solved entries:
| Smiles representation | % Inh NPY5 @ 3 μM [%] |
| --- | --- |
| COC(=O)c1ccc(-c2cc(N)n(-c3ccc(C)cc3)n2)cc1 | 2.00 |
| COC(=O)c1ccc(-c2cc(N)n(-c3ccccc3)n2)cc1 | 13.00 |
| Cc1ccc(-n2nc(-c3ccc(N(S(=O)(=O)c4cccc5ccccc45)S(=O)(=O)c4cccc5ccccc45)cc3)cc2N)cc1 | 29.00 |

I = Cc1ccc(-n2nc(-c3ccc(C(=O)O)cc3)cc2NS(=O)(=O)c2ccc(C)cc2)cc1
II = COC(=O)c1ccc(-c2cc(N(S(=O)(=O)c3ccc(C)cc3)S(=O)(=O)c3ccc(C)cc3)n(-c3ccc(C)cc3)n2)cc1
stdin: In terms of reported % Inh NPY5 @ 3 μM, does I or II have the smaller number? Which one? Tell me its label.
stdout: II

* * *

System name: human neuropeptide Y5 receptor (Homo sapiens, UniProt Q15761)
Construct: expressed in transfected cells; host or cells: HEK-293, stably transfected, G-418 selected; membranes
Test details: NPY5 HTS centrifugation assay: competition with 125I-PYY for binding to membranes of NPY5-transfected HEK-293 cells
Protocol conditions: inhibition of 125I-PYY binding; values in nM; read-out: IC50 hNPY5
Measure name: IC50 (nM)

Solved entries:
| Molecule | Unit spec | Obs value |
| --- | --- | --- |
| Nc1cc(C(=O)Nc2cccc3cnccc23)nn1-c1cccc(C(F)(F)F)c1 | nM | 400 |
| Nc1cc(-c2ccc(NS(=O)(=O)c3ccccc3)cc2)nn1-c1cc(C(F)(F)F)cc(C(F)(F)F)c1 | nM | 683 |
| Cc1ccc(-n2nc(-c3ccc(NS(=O)(=O)c4ccc(Br)cc4)cc3)cc2N)cc1 | nM | 58 |
| Nc1cc(-c2ccc(NS(=O)(=O)c3ccccc3)cc2)nn1-c1cccc2ccccc12 | nM | 233 |
| Nc1cc(-c2ccc(NS(=O)(=O)c3ccccc3)cc2)nn1-c1ccc(F)cc1 | nM | 28 |
| CNc1cc(-c2ccc(NS(=O)(=O)c3ccc(N(C)C)cc3)cc2)nn1-c1ccc(C)cc1 | nM | 487 |

A = Nc1cc(-c2ccc(NS(=O)(=O)c3cccc(C(F)(F)F)c3)cc2)nn1-c1ccccn1
B = Cc1ccc(-n2nc(-c3ccc(NS(=O)(=O)c4ccc(F)cc4)cc3)cc2N)cc1
stdin: In terms of reported IC50, does A or B have the smaller number? Which one? Tell me its label.
stdout: B

A = Cc1ccc(-n2nc(-c3ccc(NS(=O)(=O)c4ccccc4[N+](=O)[O-])cc3)cc2N)cc1
B = Cc1ccc(-n2nc(-c3ccc(NS(=O)(=O)c4ccc(C(F)(F)F)cc4)cc3)cc2N)cc1
C = Nc1ccccc1S(=O)(=O)NCC1CCC(c2cc(N)n(-c3cccc(C(F)(F)F)c3)n2)CC1 (centres unmarked)
stdin: Which order do these items take when sorted by rising IC50? List them. Please list each label once, in the requested order.
stdout: C, B, A
